system: Erythrocyte; test: Hemolytic activity against mouse red blood cells incubated for 1 hr; assay type: toxicity, cell-based
Numbered stars: 1 amine (or outer) side, 2 acyl side, 3 side chain; on linkers, the order of the positions; unused ones are H or OH. Square brackets hold non-standard residues; d marks the D form. Peptide text beside a SMILES is read from it. * marks the point of attachment. X25 = CC(C)C[C@@H](CN(CC(N)=O)S(=O)(=O)c1cccc(Cl)c1)N*; X2 = CC(C)C[C@H](N)CN(CC(=O)[*:2])[*:1]; X4 = O=S(=O)(c1cccc(Cl)c1)*
READOUT TYPE: MHC (µg/mL)
# value in µg/mL; strip the unit string

Item CC(C)C[C@H](N)CN(CC(=O)N[C@@H](CCCCN)C(=O)N[C@@H](CC(C)C)C(=O)N[C@@H](CC(C)C)C(=O)N[C@@H](CCCCN)C(=O)N[C@@H](CCCCN)C(=O)N[C@@H](CC(C)C)C(=O)N[C@@H](CC(C)C)C(N)=O)S(=O)(=O)c1cccc(Cl)c1 (X4-[X2]KLLKKLL-NH2) has what recorded MHC?
256

Item CC(C)C[C@@H](CN(CC(N)=O)S(=O)(=O)c1cccc(Cl)c1)NC(=O)[C@H](CCCCN)NC(=O)[C@H](CCCCN)NC(=O)[C@H](CC(C)C)NC(=O)[C@H](CC(C)C)NC(=O)[C@H](CCCCN)NC(=O)[C@H](CC(C)C)NC(=O)[C@@H](N)Cc1ccccc1 (H-FLKLLKK-X25) has what recorded MHC?
256
